Sourced from patent US10004687B2

# Tested on: Bxpc-3 pancreatic carcinoma cells
# Assay overview: MTT proliferation/survival assay, 72 hours incubation
# Format: cell-based
# Test conditions: Homo sapiens, read-out: 50% inhibitory concentration (IC50); BxPC-3 cells, approximate
pIC50: −log10 of the molar value.
Property label: pIC50

Ask: Suppose we examine the compound COc1cc(C=CC(=O)CC(=O)C=Cc2ccc(O)c(OC)c2)ccc1O [free curcumin] ; what pIC50 value has been reported?
Reply: ~5.30
